- Test system: full length human vWF
- METHOD DESCRIPTION: 3-point dot blot screen, full length human vWF
- Format: binding
- SETTINGS: 20 nM full length human vWF, ratio of fraction of aptamer bound with target protein to fraction bound without protein
ENDPOINT: Screen- Human/No Protein
Quick one: just the number, no unit, thanks!

* AMX237.H10: DNA SELEX 2 aptamer clone (nucleic acid, DNA, backbone not given here, DNA SELEX 2 aptamer clone) DNA: CTACCTACGATCTGACTAGCTTGGTAGCGACTCAGAGGAGCTGCGGTTTGGTCGACGTCAGCTTACTCTCATGTAGTTCC | 1.71

I am curious: what Screen- Human/No Protein value has been reported for AMX237.C7: DNA SELEX 2 aptamer clone (nucleic acid, DNA, backbone not given here, DNA SELEX 2 aptamer clone) DNA: CTACCTACGATCTGACTAGCTCCAGTGTTTTATTCAATAACCGTGCGGTGCCTCCGTGATGCTTACTCTCATGTAGTTCC ? 1.15

I am curious: what Screen- Human/No Protein value has been reported for AMX236.H1: DNA SELEX 2 aptamer clone (nucleic acid, DNA, backbone not given here, DNA SELEX 2 aptamer clone) CTACCTACGATCTGACTAGCCTCAGATTGACTCCGGCCGACTTGTTTTAATCTTCTGAGTGCTTACTCTCATGTAGTTCC ? 1.10

I am curious: what Screen- Human/No Protein value has been reported for AMX238.F5: DNA SELEX 2 aptamer clone (nucleic acid, DNA, backbone not given here, DNA SELEX 2 aptamer clone) DNA: CTACCTACGATCTGACTAGCGGAATGAGAAGCTGGTGGATTGCTCAGGTCTGCTGGCTGCTTACTCTCATGTAGTTCC ? 1.05

I am curious: what Screen- Human/No Protein value has been reported for AMX236.F7: DNA SELEX 2 aptamer clone (nucleic acid, DNA, backbone not given here, DNA SELEX 2 aptamer clone) CTACCTACGATCTGACTAGCCCCCACTTATCGTGTACCTTATGATATGTCGAATACTCTTGCTTACTCTCATGTAGTTCC ? 1.18

I am curious: what Screen- Human/No Protein value has been reported for AMX237.A11: DNA SELEX 2 aptamer clone (nucleic acid, DNA, backbone and methylation of C not given here, DNA SELEX 2 aptamer clone) CTACCTACGATCTGACTAGCTCCAGTGTTTTATCCAATAACCGTGCGGTGCCTCCGTGAGCTTACTCTCATGTAGTTCC ? 2.66

I am curious: what Screen- Human/No Protein value has been reported for AMX237.G2: DNA SELEX 2 aptamer clone (nucleic acid, DNA, backbone not given here, DNA SELEX 2 aptamer clone) DNA: CTACCTACGATCTGACTAGCTTTCAGTCTTTCATATTTATAGGGTTTGGCATTGGGTCTGGCTTACTCTCATGTAGTTCC ? 1.02

I am curious: what Screen- Human/No Protein value has been reported for AMX238.E7: DNA SELEX 2 aptamer clone (nucleic acid, DNA, backbone not given here, DNA SELEX 2 aptamer clone) DNA: CTACCTACGATCTGACTAGCGTGCAGTGCCTATTTTAGGCCGTGCGGTGCCTCCGTCACGCTTACTCTCATGTAGTTCC ? 3.02
